// reported LC50 (concentration killing 50% of cells) per item
Tested on: OVCAR-3
Assay: Growth inhibition of human OVCAR-3 cells after 48 hrs by sulforhodamine B assay
Assay type: functional
Conditions: OVCAR-3, 48 h

Consider the reported LC50 (concentration killing 50% of cells) for these molecules:
COc1ccc(/C=N/c2nc3[nH]nc(C)n3c(=O)c2S(=O)(=O)NN2C(=O)C(CN3CCN(C)CC3)SC2c2ccc(OC)cc2)cc1 (centres undefined)	75.3 µM
COc1ccc(/C=N/c2nc3[nH]nc(C)n3c(=O)c2S(=O)(=O)NN2C(=O)C(CN3CCOCC3)SC2c2cccs2)cc1 (centres undefined)	> 100 µM
COc1ccc(/C=N/c2nc3[nH]nc(C)n3c(=O)c2S(=O)(=O)NN2C(=O)C(CN3CCN(C)CC3)SC2c2cccs2)cc1 (centres undefined)	> 100 µM

--- query ---
**Query** Recorded LC50 (concentration killing 50% of cells) for COc1ccc(/C=N/c2nc3[nH]nc(C)n3c(=O)c2S(=O)(=O)NN2C(=O)C(CN3CCOCC3)SC2c2ccc(OC)cc2)cc1 (centres undefined) , please?
**Result** > 100 µM

----------
Test system: HCT-116
Assay: Growth inhibition of human HCT116 cells after 48 hrs by sulforhodamine B assay
Format: functional
Conditions: HCT-116, 48 h
# TGI per entry
Use µM as the unit, but write only the number.

COc1ccc(/C=N/c2nc3[nH]nc(C)n3c(=O)c2S(=O)(=O)NN2C(=O)C(CN3CCOCC3)SC2c2cccs2)cc1 (centres undefined)	57.4
COc1ccc(/C=N/c2nc3[nH]nc(C)n3c(=O)c2S(=O)(=O)NN2C(=O)C(CN3CCOCC3)SC2c2ccc(OC)cc2)cc1 (centres undefined)	97.3
COc1ccc(/C=N/c2nc3[nH]nc(C)n3c(=O)c2S(=O)(=O)NN2C(=O)C(CN3CCN(C)CC3)SC2c2cccs2)cc1 (centres undefined)	20

Consider the additional compound presented here.
**Query** Any idea what its TGI is? The compound is COc1ccc(/C=N/c2nc3[nH]nc(C)n3c(=O)c2S(=O)(=O)NN2C(=O)C(CN3CCN(C)CC3)SC2c2ccc(OC)cc2)cc1 (centres undefined)
**Result** 47.2

----------
Tested on: MCF7
Test: Growth inhibition of human MCF7 cells after 48 hrs by sulforhodamine B assay
Format: functional
Settings: MCF7, 48 h
Quick reference: TGI of the listed items.

Consider the reported TGI for these molecules:
COc1ccc(/C=N/c2nc3[nH]nc(C)n3c(=O)c2S(=O)(=O)NN2C(=O)C(CN3CCN(C)CC3)SC2c2cccs2)cc1 (centres undefined)	> 100 µM
COc1ccc(/C=N/c2nc3[nH]nc(C)n3c(=O)c2S(=O)(=O)NN2C(=O)C(CN3CCOCC3)SC2c2cccs2)cc1 (centres undefined)	> 100 µM

**Query** Fill in the blank: the reported TGI of COc1ccc(/C=N/c2nc3[nH]nc(C)n3c(=O)c2S(=O)(=O)NN2C(=O)C(CN3CCN(C)CC3)SC2c2ccc(OC)cc2)cc1 (centres undefined) is ____.
**Result** 47.8 µM

**Query** Thanks! And COc1ccc(/C=N/c2nc3[nH]nc(C)n3c(=O)c2S(=O)(=O)NN2C(=O)C(CN3CCOCC3)SC2c2ccc(OC)cc2)cc1 (centres undefined) ?
**Result** > 100 µM

----------
Attribute: LC50 (concentration killing 50% of cells)
System: NCI-H226
Assay: Growth inhibition of human NCI-H226 cells after 48 hrs by sulforhodamine B assay
Assay type: functional
Conditions: NCI-H226, 48 h

Study these solved cases before continuing.
COc1ccc(/C=N/c2nc3[nH]nc(C)n3c(=O)c2S(=O)(=O)NN2C(=O)C(CN3CCN(C)CC3)SC2c2ccc(OC)cc2)cc1 (centres undefined)	75.7 µM
COc1ccc(/C=N/c2nc3[nH]nc(C)n3c(=O)c2S(=O)(=O)NN2C(=O)C(CN3CCOCC3)SC2c2ccc(OC)cc2)cc1 (centres undefined)	> 100 µM
COc1ccc(/C=N/c2nc3[nH]nc(C)n3c(=O)c2S(=O)(=O)NN2C(=O)C(CN3CCN(C)CC3)SC2c2cccs2)cc1 (centres undefined)	> 100 µM

**Query** Suppose we examine the molecule COc1ccc(/C=N/c2nc3[nH]nc(C)n3c(=O)c2S(=O)(=O)NN2C(=O)C(CN3CCOCC3)SC2c2cccs2)cc1 (centres undefined) ; what LC50 (concentration killing 50% of cells) value has been reported?
**Result** > 100 µM

----------
Test system: UO-31
Assay: Growth inhibition of human UO31 cells after 48 hrs by sulforhodamine B assay
Type: functional
Conditions: UO-31, 48 h
// reported TGI per item
State just the number; it will be interpreted in µM.

COc1ccc(/C=N/c2nc3[nH]nc(C)n3c(=O)c2S(=O)(=O)NN2C(=O)C(CN3CCOCC3)SC2c2cccs2)cc1 (centres undefined)	86.4

**Query** TGI for COc1ccc(/C=N/c2nc3[nH]nc(C)n3c(=O)c2S(=O)(=O)NN2C(=O)C(CN3CCN(C)CC3)SC2c2ccc(OC)cc2)cc1 (centres undefined) ?
**Result** 38.1

----------
Assay: Growth inhibition of human Hs 578T cells after 48 hrs by sulforhodamine B assay
Type: functional
Below, each entry is listed alongside its reported TGI.
Response body: numeric value in µM, unit text excluded.

COc1ccc(/C=N/c2nc3[nH]nc(C)n3c(=O)c2S(=O)(=O)NN2C(=O)C(CN3CCN(C)CC3)SC2c2ccc(OC)cc2)cc1 (centres undefined)	34

**Query** Name the reported TGI value associated with the molecule COc1ccc(/C=N/c2nc3[nH]nc(C)n3c(=O)c2S(=O)(=O)NN2C(=O)C(CN3CCOCC3)SC2c2cccs2)cc1 (centres undefined)
**Result** 82.1

----------
Tested on: HOP-92
Assay: Growth inhibition of human HOP92 cells after 48 hrs by sulforhodamine B assay
Format: functional
Settings: HOP-92, 48 h
MEASUREMENT_KIND: TGI

Consider the worked cases shown below.
COc1ccc(/C=N/c2nc3[nH]nc(C)n3c(=O)c2S(=O)(=O)NN2C(=O)C(CN3CCOCC3)SC2c2cccs2)cc1 (centres undefined)	> 100 µM
COc1ccc(/C=N/c2nc3[nH]nc(C)n3c(=O)c2S(=O)(=O)NN2C(=O)C(CN3CCN(C)CC3)SC2c2ccc(OC)cc2)cc1 (centres undefined)	36.4 µM
COc1ccc(/C=N/c2nc3[nH]nc(C)n3c(=O)c2S(=O)(=O)NN2C(=O)C(CN3CCOCC3)SC2c2ccc(OC)cc2)cc1 (centres undefined)	> 100 µM

Consider now this further compound.
**Query** Item COc1ccc(/C=N/c2nc3[nH]nc(C)n3c(=O)c2S(=O)(=O)NN2C(=O)C(CN3CCN(C)CC3)SC2c2cccs2)cc1 (centres undefined) has what recorded TGI?
**Result** > 100 µM

----------
System: NCI-H460
Experiment: Antiproliferative activity against human NCI-H460 cells assessed as cell growth at 100 uM after 48 hrs by alamar blue assay
Format: functional
Details: NCI-H460, 48 h, read-out: Activity
MEASUREMENT_KIND: growth at 100 µM

Recorded results for 2 compounds are shown here.
COc1ccc(/C=N/NS(=O)(=O)c2c(/N=C/c3ccc(OC)cc3)nc3[nH]nc(C)n3c2=O)cc1	55%
COc1ccc(/C=N/c2nc3[nH]nc(C)n3c(=O)c2S(=O)(=O)NN2C(=O)CSC2c2ccc(C)cc2)cc1 (stereo not given)	67%

**Query** Endpoint output: growth at 100 µM of COc1ccc(/C=N/c2nc3[nH]nc(C)n3c(=O)c2S(=O)(=O)NN2C(=O)C(CN3CCOCC3)SC2c2ccc(Cl)cc2)cc1 (stereo not given) . Value?
**Result** 68%

**Query** Moving on to COc1ccc(/C=N/c2nc3[nH]nc(C)n3c(=O)c2S(=O)(=O)NN2C(=O)C(CN3CCN(C)CC3)SC2c2ccc(OC)cc2)cc1 (stereo not given)
**Result** 0%

**Query** Another compound to look at: COc1ccc(/C=N/c2nc3[nH]nc(C)n3c(=O)c2S(=O)(=O)NN2C(=O)CSC2c2ccc(OC)cc2)cc1 (stereo not given)
**Result** 118%

**Query** Record: COc1ccc(/C=N/c2nc3[nH]nc(C)n3c(=O)c2S(=O)(=O)NN2C(=O)C(CN3CCOCC3)SC2c2cccs2)cc1 (stereo not given)
**Result** 13%

**Query** Entry to check: COc1ccc(/C=N/c2nc3[nH]nc(C)n3c(=O)c2S(=O)(=O)Nc2ccc(C)cc2)cc1
**Result** 89%

----------
Tested on: NCI-H460
Assay: Antiproliferative activity against human NCI-H460 cells assessed as cell growth at 100 uM after 48 hrs by alamar blue assay
Type: functional
Details: NCI-H460, 48 h, read-out: Activity
Below: a set of entries, each annotated with reported growth at 100 µM.
Use % as the unit, but write only the number.

COc1ccc(/C=N/c2nc3[nH]nc(C)n3c(=O)c2S(=O)(=O)Nc2ccc(OC)cc2)cc1	82

**Query** Consider the compound shown here: COc1ccc(/C=N/c2nc3[nH]nc(C)n3c(=O)c2S(=O)(=O)NN2C(=O)C(CN3CCN(C)CC3)SC2c2cccs2)cc1 (stereo not drawn) What is its recorded growth at 100 µM?
**Result** 24

**Query** What about COc1ccc(/C=N/c2nc3[nH]nc(C)n3c(=O)c2S(=O)(=O)NN2C(=O)C(CN3CCOCC3)SC2c2ccc(C)cc2)cc1 (stereo not drawn) ?
**Result** 63
